# study conditions: human, in vivo
Kindly return 1.0 if reported AUC of coadministered drug, geometric mean ratio with/without EDURANT is no lower than 0.9; return 0.0 if it is lower.

Say whether CN(C)C(=N)N=C(N)N shows AUC of coadministered drug, geometric mean ratio with/without EDURANT of 0.9 or more.
1.0

Say whether COc1ccc2[nH]c([S+]([O-])Cc3ncc(C)c(OC)c3C)nc2c1 (stereo not drawn) shows AUC of coadministered drug, geometric mean ratio with/without EDURANT of 0.9 or more.
0.0

Say whether CCCc1nn(C)c2c(=O)[nH]c(-c3cc(S(=O)(=O)N4CCN(C)CC4)ccc3OCC)nc12 shows AUC of coadministered drug, geometric mean ratio with/without EDURANT of 0.9 or more.
1.0

Say whether C#C[C@]1(O)CC[C@H]2[C@@H]3CCc4cc(O)ccc4[C@H]3CC[C@@]21C shows AUC of coadministered drug, geometric mean ratio with/without EDURANT of 0.9 or more.
1.0
